experimental.target: T1, apical domain of CD71 (Screen 3: 'cynomolgus apical domain of human CD71') (cynomolgus (as 'cynomolgus apical …))
T1 construct: domain: apical domain; Species is told ambiguously
experiment: primary ELISA screen, apical domain of CD71; further: test concentration or dose not given here
measured.metric: RLU (RLU)
One number for each entry, in RLU.

Solved entries (count: 6):
{"binder": "CD71-binding FN3 domain of SEQ ID NO: 341 (designed binder, not shown: C-terminal poly-histidine tag added to each FN3 domain) MSLPAPKNLVVSRVTEDSARLSWTAPDAAFDSFFIGYLEPQPPGEAIELYVPGSERSYDLTGLKPGTEYNVTIQGVKGGFPSLPLVAIFTT", "RLU / RLU": "5.31e+06"}
{"binder": "CD71-binding FN3 domain of SEQ ID NO: 338 (designed binder, not shown: C-terminal poly-histidine tag added to each FN3 domain) MSLPAPKNLVVSRVTEDSARLSWTAPDAAFDSFEIGYFENLYLGEAIVLTVPGSERSYDLTGLKPGTEYCVYICGVKGGRDSMPLSAIFTT", "RLU / RLU": "5.02e+06"}
{"binder": "CD71-binding FN3 domain of SEQ ID NO: 339 (designed binder, not shown: C-terminal poly-histidine tag added to each FN3 domain) MSLPAPKNLVVSRVTEDSARLSWTAPDAAFDSFEIGYWEMSYYGEAIVLTVPGSERSYDLTGLKPGTEYGVSIGGVKGGRWSLPLSAIFTT", "RLU / RLU": "4.86e+06"}
{"binder": "CD71-binding FN3 domain of SEQ ID NO: 337 (designed binder, not shown: C-terminal poly-histidine tag added to each FN3 domain) MSLPAPKNLVVSRVTEDSARLSWTAPDAAFDSFFIGYLEPQPPGEAIHLYVPGSERSYDLTGLKPGTEYNVTIQGVKGGFPSIPLIASFTT", "RLU / RLU": "6.62e+06"}
{"binder": "CD71-binding FN3 domain of SEQ ID NO: 344 (designed binder, not shown: C-terminal poly-histidine tag added to each FN3 domain) MSLPAPKNLFVSRVTEDSARLSWTAPDAAFDSFEIGYWENAYKGEAIVLTVPGSERSYDLTGLKPGTEYWVQIGGVKGGNWSAPLSAIFTT", "RLU / RLU": "3.4e+06"}
{"binder": "CD71-binding FN3 domain of SEQ ID NO: 343 (designed binder, not shown: C-terminal poly-histidine tag added to each FN3 domain) MSLPAPKNLVVSRVTEDSARLSWTAPDAAFDSFFIGYLEPQPPGEAIALWVPGSERSYDLTGLKPGTEYNVTIQGVKGGFPSEPLVATFTT", "RLU / RLU": "5.42e+06"}

Batch request: RLU per item, same order as input.
1. CD71-binding FN3 domain of SEQ ID NO: 345 (designed binder, not shown: C-terminal poly-histidine tag added to each FN3 domain) MSLPAPKNLVVSRVTEDSAHLSWTAPDAAFDSFEIGYFENDYFGEAIVLTVPGSERSYDLTGLKPGTEYVVFIGGVKGGKWSAPLSAIFTT
2. CD71-binding FN3 domain of SEQ ID NO: 335 (designed binder, not shown: C-terminal poly-histidine tag added to each FN3 domain) MSLPAPKNLVVSRVTEDSARLSWTAPDAAFDSFFIGYLEPQPPGEAIDLYVPGSERSYDLTGLKPGTEYNVTIQGVKGGFPSLPLVATFTT
3. CD71-binding FN3 domain of SEQ ID NO: 336 (designed binder, not shown: C-terminal poly-histidine tag added to each FN3 domain) MSLPAPKNLVVSRVTEDSARLSWTAPDAAFDSFNIMYHEHYDNGEAIVLTVPGSERSYDLTGLKPGTEYSVVINGVKGGPHSAPLSAIFTT
4. CD71-binding FN3 domain of SEQ ID NO: 340 (designed binder, not shown: C-terminal poly-histidine tag added to each FN3 domain) MSLPAPKNLVVSRVTEDSSRLSWTAPDAAFDSFEIGYFENLYLGEAIVLTVPGSERSYDLTGLKPGTEYWVQIGGVKGGNWSAPLSAIFTT
5. CD71-binding FN3 domain of SEQ ID NO: 342 (designed binder, not shown: C-terminal poly-histidine tag added to each FN3 domain) MSLPAPKNLVVSRVTEDSARLSWTAPDAAFDSFFIGYLEPQPPGEAIVLTVPGSERSYDLTGLKPGTEYNVTIQGVKGGFPSEPLIANFTT

["4.59e+06", "5.9e+06", "4.31e+06", "5.1e+06", "5.41e+06"]

Which value of RLU has been reported for CD71-binding FN3 domain of SEQ ID NO: 334 (designed binder, not shown: C-terminal poly-histidine tag added to each FN3 domain) MSLPAPKNLVVSRVTEDSARLSWTAPDAAFDSFEIAYQELSLWGEAIVLTVPGSERSYDLTGLKPGTEYWVQIGGVKGGIWSSPLVASFTT in the records? 5.45e+06

The origin of these recorded values is patent US20260151494A1.
